# systemUnderTest: Breakpoint cluster region protein (Homo sapiens) (UniProt P11274)
# Sequence (P11274 whole entry, looked up, the tested form may be a part): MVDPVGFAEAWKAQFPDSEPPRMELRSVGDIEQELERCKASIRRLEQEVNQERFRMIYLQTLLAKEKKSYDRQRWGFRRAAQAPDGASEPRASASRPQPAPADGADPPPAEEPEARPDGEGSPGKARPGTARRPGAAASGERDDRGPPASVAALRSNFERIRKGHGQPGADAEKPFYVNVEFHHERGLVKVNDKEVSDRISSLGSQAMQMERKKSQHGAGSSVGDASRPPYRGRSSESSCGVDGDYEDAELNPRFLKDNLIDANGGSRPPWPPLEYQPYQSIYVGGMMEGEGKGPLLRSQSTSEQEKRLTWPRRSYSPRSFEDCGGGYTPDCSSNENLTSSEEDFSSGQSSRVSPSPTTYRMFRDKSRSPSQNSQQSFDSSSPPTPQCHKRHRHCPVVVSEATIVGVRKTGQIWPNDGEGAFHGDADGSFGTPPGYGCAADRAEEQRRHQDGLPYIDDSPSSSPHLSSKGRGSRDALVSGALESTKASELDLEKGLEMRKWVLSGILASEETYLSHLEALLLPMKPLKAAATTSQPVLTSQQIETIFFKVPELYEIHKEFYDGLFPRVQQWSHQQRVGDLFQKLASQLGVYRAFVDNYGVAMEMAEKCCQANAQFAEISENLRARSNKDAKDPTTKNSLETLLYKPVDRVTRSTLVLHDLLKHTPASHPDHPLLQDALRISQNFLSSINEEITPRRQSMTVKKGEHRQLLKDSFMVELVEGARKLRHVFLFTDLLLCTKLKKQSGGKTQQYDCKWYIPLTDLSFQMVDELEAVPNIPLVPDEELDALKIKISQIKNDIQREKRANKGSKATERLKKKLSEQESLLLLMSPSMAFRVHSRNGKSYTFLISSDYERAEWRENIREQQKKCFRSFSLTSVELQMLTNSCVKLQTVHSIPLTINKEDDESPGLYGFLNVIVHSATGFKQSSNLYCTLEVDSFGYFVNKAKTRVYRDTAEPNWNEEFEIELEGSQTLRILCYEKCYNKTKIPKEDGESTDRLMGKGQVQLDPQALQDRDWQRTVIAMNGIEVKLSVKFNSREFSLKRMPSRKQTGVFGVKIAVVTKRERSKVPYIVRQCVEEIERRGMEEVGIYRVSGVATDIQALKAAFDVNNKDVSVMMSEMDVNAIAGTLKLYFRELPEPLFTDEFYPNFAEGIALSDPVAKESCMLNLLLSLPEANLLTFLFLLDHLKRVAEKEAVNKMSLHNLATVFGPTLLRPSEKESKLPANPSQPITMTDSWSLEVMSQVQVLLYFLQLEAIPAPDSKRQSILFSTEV
# protocolSummary: breakpoint cluster region GTPase-activating protein domain inhibitors, dose-response, specificity counterscreen for MgcRacGAP inhibitor project, cell-free, Rac1 GTPase, Biomol Green phosphate readout (AID 652149)
# measurementConditions: BCR GAP/Rac1 GTPase, Biomol green phosphate absorbance
Collected IC50 values appear next to each entry.

# compound, systemUnderTest, IC50, µM
measured = [
    ("CSc1nc(N)c(N=Nc2ccc([As](=O)(O)O)cc2)c(=O)[nH]1", "Breakpoint cluster region protein (Homo sapiens) (UniProt P11274)", 5.86),
    ("Cc1c(Cl)sn(-c2ccc(Cl)cc2)c1=O", "Breakpoint cluster region protein (Homo sapiens) (UniProt P11274)", 12.9),
    ("CN(C)c1ccc(C=c2c3cc(O)ccc3n3c2cc(-c2ccccc2)[n+]3C)cc1", "Breakpoint cluster region protein (Homo sapiens) (UniProt P11274)", 10.8),
    ("O=c1c2sc3ccccc3c2[nH]c(=S)n1CCN1CCOCC1", "Breakpoint cluster region protein (Homo sapiens) (UniProt P11274)", 5.15),
    ("CCN1CCN(Cc2ccc(NC(=O)c3ccc(C)c(/C=C/c4cnc(Nc5cc(N6CCNCC6)nc(C)n5)cn4)c3)cc2C(F)(F)F)CC1", "Breakpoint cluster region protein (Homo sapiens) (UniProt P11274)", 72.7),
    ("COc1ccc(/C=N/Nc2cc(C)nc3ccc(OC)cc23)c(OC)c1", "Breakpoint cluster region protein (Homo sapiens) (UniProt P11274)", 18.4),
    ("O=C1C=CC(=O)c2c(O)c(N3CCN(CCO)CC3)c(Cl)c(O)c21", "Breakpoint cluster region protein (Homo sapiens) (UniProt P11274)", 10.2),
    ("O=c1c2cc(F)ccc2sn1-c1ccccc1Cl", "Breakpoint cluster region protein (Homo sapiens) (UniProt P11274)", 8.92),
    ("CN(C)c1nc(=NCc2cccs2)ss1", "Breakpoint cluster region protein (Homo sapiens) (UniProt P11274)", 18.5),
    ("COc1ccc(NC2CCCN(C(=O)C3(C)CCCCC3)C2)cc1 (stereo unspecified)", "Breakpoint cluster region protein (Homo sapiens) (UniProt P11274)", 7.34),
    ("O=C(O)c1cc(N2C(=O)C=CC2=O)cc(N2C(=O)C=CC2=O)c1", "Breakpoint cluster region protein (Homo sapiens) (UniProt P11274)", 24.4),
]
